Exercise: for every item that follows, state its recorded Kd.
Molecular target: T1, fHbp m002420 (Neisseria meningitidis, designed fHbp …, chimera)
T1 chain: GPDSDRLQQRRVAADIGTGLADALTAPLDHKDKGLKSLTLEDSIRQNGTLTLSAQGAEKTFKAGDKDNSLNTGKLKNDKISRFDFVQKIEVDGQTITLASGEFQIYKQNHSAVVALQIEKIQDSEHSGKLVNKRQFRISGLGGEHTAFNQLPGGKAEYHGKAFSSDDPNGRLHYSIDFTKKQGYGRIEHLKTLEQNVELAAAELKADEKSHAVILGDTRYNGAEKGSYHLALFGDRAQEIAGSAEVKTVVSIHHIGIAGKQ
Assay: BLI
Details: both partners purified
One number for each entry, in nM.

Look up Kd for this binder: chimeric antibody h12C1 (antibody, V domains shown, also called humanized 12C1; source: Expi293, purified (MabSelect SuRe, SEC); copies: 2 + 2) VH: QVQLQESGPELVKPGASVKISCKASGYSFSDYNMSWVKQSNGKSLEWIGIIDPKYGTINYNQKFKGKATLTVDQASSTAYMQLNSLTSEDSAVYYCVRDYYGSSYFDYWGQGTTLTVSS VL: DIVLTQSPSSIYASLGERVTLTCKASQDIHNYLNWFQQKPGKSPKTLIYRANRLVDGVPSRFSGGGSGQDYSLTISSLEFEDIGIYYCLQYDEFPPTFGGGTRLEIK
70.4

What do you have for mAb 4B3 (human) (antibody, V domains shown, also called 4B3-2; source: Expi293, purified (MabSelect SuRe, SEC); copies: 2 + 2) VH: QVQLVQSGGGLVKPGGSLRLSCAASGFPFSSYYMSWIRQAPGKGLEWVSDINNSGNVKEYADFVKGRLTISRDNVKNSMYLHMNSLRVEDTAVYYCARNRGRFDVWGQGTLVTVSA VL: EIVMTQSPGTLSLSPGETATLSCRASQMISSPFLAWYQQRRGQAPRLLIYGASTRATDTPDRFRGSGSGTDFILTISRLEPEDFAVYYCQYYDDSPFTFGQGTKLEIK ?
2.01

Same question, chimeric antibody hJAR5 (antibody, V domains shown, also called hJAR5-2; humanized JAR5; source: Expi293, purified (MabSelect SuRe, SEC); copies: 2 + 2) VH: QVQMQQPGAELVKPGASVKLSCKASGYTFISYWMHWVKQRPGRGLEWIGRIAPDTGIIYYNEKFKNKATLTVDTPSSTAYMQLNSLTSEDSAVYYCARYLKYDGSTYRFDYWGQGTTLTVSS VL: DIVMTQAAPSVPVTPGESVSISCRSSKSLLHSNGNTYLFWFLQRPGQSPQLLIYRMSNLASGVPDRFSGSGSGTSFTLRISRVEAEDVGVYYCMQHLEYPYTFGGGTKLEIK this time
0.256

Please turn your attention to the following entry.
GET /values?readout=Kd&item= mAb 1E6 (human) (antibody, V domains shown, source: Expi293, purified (MabSelect SuRe, SEC); copies: 2 + 2) VH: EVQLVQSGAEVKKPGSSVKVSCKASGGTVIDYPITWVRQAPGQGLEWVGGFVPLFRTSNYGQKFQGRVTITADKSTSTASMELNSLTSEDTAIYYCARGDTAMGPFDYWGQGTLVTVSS VL: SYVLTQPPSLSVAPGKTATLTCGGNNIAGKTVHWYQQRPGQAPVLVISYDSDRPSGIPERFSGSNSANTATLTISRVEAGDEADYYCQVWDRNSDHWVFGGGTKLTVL
0.285
